# Target desc: SARS-CoV-2 spike protein, WA1/2020, borne on lentiviral pseudovirus (SARS-CoV-2, WA01/2020 strain, UniProt P0DTC2 14-1273)
# Assay protocol: cell-based or functional assay
Returns: string. Value is condition met if measured Pseudo Neut, WA1/2020 IC50 (pM) is below 200 pM, and condition not met if it is greater than or equal to it.

* antibody 4042 (antibody, V domains shown) VH: QITLKESGPTLVKPTQTLTLTCTFSGFSLSSGGVGVGWIRQPPGKALEWLALIYWDDDKRYRPSLKSRLTITRDTSTNQVVLTMTNMDPVDTATYFCARHQIATVFDHWGQGTLVTVSS VL: QSALTQPASVSGSPGQSITISCTGTSSDVGGYNYVSWYQQHPGKAPKLMIYEVSNRPSGVSSRFSGSKSGNTASLTISGLQAEDEADYYCSSYTRSSPLVAFGGGTKVTVL | condition not met
* antibody 1227 (antibody, V domains shown) VH: QMQLVQSGAEVKKTGSSVKVSCEASGYTFTNRYLHWVRQAPGQALEWMGWITPFQGNTNYAQKFQDRVTITRDMSMNTVYMELSSLRSEDTAKYYCASGGQYGAGSYYLEDWGQGTLVTVSS VL: EIVMTQSPATLSVSPGERATLSCRASQSVRSNLAWYRQKPGQAPRLLIYGASTRATGVPARFSGSGSGTEFTLTISSLQSEDFAVYYCQQYINWPPLTFGGGTRVEIK | condition not met
* antibody 2619 (antibody, V domains shown) VH: EVQLVESGGGLVQPGRSLRLSCAASGFTFDDYAMHWVRQAPGKGLEWVSGISWNSGSIGYADSVKGRFTLSRDNAKNSLFLQMDSLRAEDTALYYCAKDVSYRSGSYYRFWGGSGSWGQGTLVTVSS VL: DIQMTQSPSSLSASVGDRVTITCRASLSIRSYLNWYQQKPGKPPKLLIYAASSLQSGVPSRFSGSGSGTDFTLTISSLQPEDFATYYCQQSYSTPLTFGGGTKVEIK | condition not met
* antibody 3086 (antibody, V domains shown) VH: QVQLQESGPGLVKPSETLSLTCTVSGGSISGHYWSWIRQPPGKGLEWIGYIYYSGSTNYNPSLKSRVTISVDTSVNQFSLKLSSVTAADTAVYYCARQEARDAVGNYFFDSWGQGTLVTVSS VL: QSALTQPASVSGSPGQSITISCSGTSSDIGSYDLVSWYQQHPGKAPKLLIYDVTKRPSGVSHRFSGSKSGNTASLTISGLQGEDEADYYCCSYVHFSTWVFGGGTKLTVL | condition met
* antibody 2020 (antibody, V domains shown) VH: QVQLVQSGAEVKKPGASVKVSCKASGYTFTDYFMHWVRQAPGQGLEWMGWVNPLSGGTNFAQKFQGRVTMTSDTSITTVYMELSRLRSDDTAVYYCARDPPLYSSTYGMDVWGQGTTVTVSS VL: QSALTQPASVSGSPGQSITISCTGTSSDVGAYNYVSWYQQHPGKAPKLMIYDVSDRPSGVSNRFSGSKSGNTASLTISGLQAEDEADYYCSSYTISSSVVFGGGTKLTVL | condition not met
